Reference for the values: paper PMC7160233

system: MRSA* 43300; type: cell-based, methicillin-resistant Staphylococcus aureus; conditions: * 43300, 24 h
Where a SMILES comes first, the peptide text is derived from it.
Measured MIC MRSA* 43300 by item
Kindly answer with a numeric value in μ M, unit omitted.

Any idea what MIC MRSA* 43300 was measured for N=C(N)NCCC[C@H](NC(=O)[C@H](CCCNC(=N)N)NC(=O)[C@H](Cc1c[nH]c2ccccc12)NC(=O)[C@H](CS)NC(=O)[C@H](Cc1c[nH]c2ccccc12)NC(=O)[C@H](Cc1c[nH]c2ccccc12)NC(=O)[C@H](Cc1c[nH]c2ccccc12)NC(=O)[C@H](CS)NC(=O)[C@H](Cc1c[nH]c2ccccc12)NC(=O)[C@H](CCCNC(=N)N)NC(=O)[C@@H](N)CCCNC(=N)N)C(N)=O [Peptide S1] (H-RRWCWWWCWRR-NH2; N-terminus assumed) ?
4

Now look at this one.
Any idea what MIC MRSA* 43300 was measured for N=C(N)NCCC[C@H](NC(=O)[C@H](CCCNC(=N)N)NC(=O)[C@H](Cc1c[nH]c2ccccc12)NC(=O)[C@H](CO)NC(=O)[C@H](Cc1c[nH]c2ccccc12)NC(=O)[C@H](Cc1c[nH]c2ccccc12)NC(=O)[C@H](Cc1c[nH]c2ccccc12)NC(=O)[C@H](CO)NC(=O)[C@H](Cc1c[nH]c2ccccc12)NC(=O)[C@H](CCCNC(=N)N)NC(=O)[C@@H](N)CCCNC(=N)N)C(N)=O [Peptide S7] (H-RRWSWWWSWRR-NH2) ?
2

* * *

tested on: L. rhamnosus 1.0386; format: cell-based, Lactobacillus rhamnosus; details: 24 h
Where a SMILES comes first, the peptide text is derived from it.
PARAMETER MEASURED: MIC L. rhamnosus 1.0386

Worked examples, 5 compounds total:
Query the reported MIC L. rhamnosus 1.0386 for L. rhamnosus 1.0386; item: N=C(N)NCCC[C@H](NC(=O)[C@H](CCCNC(=N)N)NC(=O)[C@H](Cc1c[nH]c2ccccc12)NC(=O)[C@H](CO)NC(=O)[C@H](Cc1c[nH]c2ccccc12)NC(=O)[C@H](Cc1c[nH]c2ccccc12)NC(=O)[C@H](Cc1c[nH]c2ccccc12)NC(=O)[C@H](CO)NC(=O)[C@H](Cc1c[nH]c2ccccc12)NC(=O)[C@H](CCCNC(=N)N)NC(=O)[C@@H](N)CCCNC(=N)N)C(N)=O [Peptide S7] (H-RRWSWWWSWRR-NH2)
>64 μ M

What about N=C(N)NCCC[C@H](NC(=O)[C@H](CCCNC(=N)N)NC(=O)[C@H](Cc1c[nH]c2ccccc12)NC(=O)CNC(=O)[C@H](Cc1c[nH]c2ccccc12)NC(=O)[C@H](Cc1c[nH]c2ccccc12)NC(=O)[C@H](Cc1c[nH]c2ccccc12)NC(=O)CNC(=O)[C@H](Cc1c[nH]c2ccccc12)NC(=O)[C@H](CCCNC(=N)N)NC(=O)[C@@H](N)CCCNC(=N)N)C(N)=O [Peptide S6] (H-RRWGWWWGWRR-NH2) ?
>64 μ M

What about N=C(N)NCCC[C@H](NC(=O)[C@H](CCCNC(=N)N)NC(=O)[C@H](Cc1c[nH]c2ccccc12)NC(=O)[C@H](CS)NC(=O)[C@H](Cc1c[nH]c2ccccc12)NC(=O)[C@H](Cc1c[nH]c2ccccc12)NC(=O)[C@H](Cc1c[nH]c2ccccc12)NC(=O)[C@H](CS)NC(=O)[C@H](Cc1c[nH]c2ccccc12)NC(=O)[C@H](CCCNC(=N)N)NC(=O)[C@@H](N)CCCNC(=N)N)C(N)=O [Peptide S1] (H-RRWCWWWCWRR-NH2; N-terminus assumed) ?
>64 μ M

What about N=C(N)NCCC[C@H](NC(=O)[C@H](CCCNC(=N)N)NC(=O)[C@H](Cc1c[nH]c2ccccc12)NC(=O)[C@H](Cc1ccc(O)cc1)NC(=O)[C@H](Cc1c[nH]c2ccccc12)NC(=O)[C@H](Cc1c[nH]c2ccccc12)NC(=O)[C@H](Cc1c[nH]c2ccccc12)NC(=O)[C@H](Cc1ccc(O)cc1)NC(=O)[C@H](Cc1c[nH]c2ccccc12)NC(=O)[C@H](CCCNC(=N)N)NC(=O)[C@@H](N)CCCNC(=N)N)C(N)=O [Peptide S2] (H-RRWYWWWYWRR-NH2) ?
16 μ M

What about N=C(N)NCCC[C@H](NC(=O)[C@H](CCCNC(=N)N)NC(=O)[C@H](Cc1c[nH]c2ccccc12)NC(=O)[C@H](CCC(N)=O)NC(=O)[C@H](Cc1c[nH]c2ccccc12)NC(=O)[C@H](Cc1c[nH]c2ccccc12)NC(=O)[C@H](Cc1c[nH]c2ccccc12)NC(=O)[C@H](CCC(N)=O)NC(=O)[C@H](Cc1c[nH]c2ccccc12)NC(=O)[C@H](CCCNC(=N)N)NC(=O)[C@@H](N)CCCNC(=N)N)C(N)=O [Peptide S4] (H-RRWQWWWQWRR-NH2) ?
64 μ M

New cases:
Query the reported MIC L. rhamnosus 1.0386 for L. rhamnosus 1.0386; item: C[C@@H](O)[C@H](NC(=O)[C@H](Cc1c[nH]c2ccccc12)NC(=O)[C@H](Cc1c[nH]c2ccccc12)NC(=O)[C@H](Cc1c[nH]c2ccccc12)NC(=O)[C@@H](NC(=O)[C@H](Cc1c[nH]c2ccccc12)NC(=O)[C@H](CCCNC(=N)N)NC(=O)[C@@H](N)CCCNC(=N)N)[C@@H](C)O)C(=O)N[C@@H](Cc1c[nH]c2ccccc12)C(=O)N[C@@H](CCCNC(=N)N)C(=O)N[C@@H](CCCNC(=N)N)C(N)=O [Peptide S5] (H-RRWTWWWTWRR-NH2)
>64 μ M

What about N=C(N)NCCC[C@H](NC(=O)[C@H](CCCNC(=N)N)NC(=O)[C@H](Cc1c[nH]c2ccccc12)NC(=O)[C@H](CC(N)=O)NC(=O)[C@H](Cc1c[nH]c2ccccc12)NC(=O)[C@H](Cc1c[nH]c2ccccc12)NC(=O)[C@H](Cc1c[nH]c2ccccc12)NC(=O)[C@H](CC(N)=O)NC(=O)[C@H](Cc1c[nH]c2ccccc12)NC(=O)[C@H](CCCNC(=N)N)NC(=O)[C@@H](N)CCCNC(=N)N)C(N)=O [Peptide S3] (H-RRWNWWWNWRR-NH2) ?
>64 μ M
